All figures here come from PubChem BioAssay (NCI).

# test.method.notes: NCI Yeast Anticancer Drug Screen. Data for the rad50 strain (AID 155);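 also: 0% = growth of vehicle-only cultures of the same strain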
# condition.context: S. cerevisiae rad50 strain growth inhibition; at 5.0 µM (retest, dose inferred, filed as 0.5); active compounds read high
The panel holds about 79,000 compounds, 15% with a hit somewhere; the sample as a whole holds those more often.
Each entry below carries its reported growth inhibition.
Provide the reading as a plain figure in %.

Reference set, count: 4
Exercise: Given the compound O=C(Nc1ccccc1-c1nn(CN2CCNCC2)c(=S)n(CN2CCNCC2)c1=O)C(F)(F)F , what is its reported growth inhibition?
Solution: 0

Exercise: Given the compound Nc1c2c(=O)[nH]c(=O)c2c(N)c2c(=O)c3ccccc3c(=O)c12 , what is its reported growth inhibition?
Solution: 36

Exercise: Given the compound COc1ccc2c(c1)CC/C(=C\c1ccc(OCCN(C)C)cc1)C2=O , what is its reported growth inhibition?
Solution: 12

Exercise: Given the compound CCCCCCCCCCCCCCCCCCOS(=O)(=O)O (tested in a mixture with another compound) , what is its reported growth inhibition?
Solution: 1

New cases:
Exercise: Given the compound O=C(C(=S)c1ccccc1)N(Cc1ccccc1)Cc1ccccc1 , what is its reported growth inhibition?
Solution: -2

Exercise: Given the compound CCc1ccccc1NC(=O)C(C#N)C1=C(Cl)C(=O)c2ccccc2C1=O (stereo not given) , what is its reported growth inhibition?
Solution: 53

Exercise: Given the compound CN(C)C(N)=NC#N , what is its reported growth inhibition?
Solution: 25

Exercise: Given the compound CCCCCCCCCCCCCCCCN(C)c1ccc(S(=O)(=O)O)cc1[N+](=O)[O-] , what is its reported growth inhibition?
Solution: 43

Exercise: Given the compound Cc1ccccc1NC(=S)N/N=C(/c1ccccc1)c1ccccn1 , what is its reported growth inhibition?
Solution: 5

Exercise: Given the compound CCOC(=O)C(/C=N\C(=S)Nc1ccc(Cl)c(Cl)c1)=C(/O)c1ccccc1 , what is its reported growth inhibition?
Solution: 2
